Test system: Escherichia coli
Test: Antimicrobial activity against Escherichia coli C ATCC 13706 measured on day 4 by broth microdilution method
Format: functional
Conditions: C ATCC 13706, 96 h
Where a SMILES comes first, the peptide text is derived from it. The star is where a group is joined. Benzoyl(4-B(OH)2) = O=C(c1ccc(B(O)O)cc1)*; Acridin9yl = c1ccc2c(*)c3ccccc3nc2c1; Bz = O=C(c1ccccc1)*
metric: MIC (µg/mL)
Give just the number in µg/mL; leave the unit off.

Lab note: CC(C)C[C@H](NC(=O)[C@H](CCCCN)NC(=O)[C@H](CC(C)C)NC(=O)[C@H](CCCCN)NC(=O)[C@H](CCCCN)NC(=O)[C@H](CC(C)C)NC(=O)[C@@H](N)CCCCN)C(=O)N[C@@H](CCCCN)C(=O)N[C@@H](CCCCNC(=O)c1ccc(B(O)O)cc1)C(=O)N[C@@H](Cc1ccc(O)cc1)C(=O)O (H-KLKKLKLKK(Benzoyl(4-B(OH)2))Y-OH) gave MIC of 16

// recorded MIC for CC(C)C[C@H](NC(=O)[C@H](CCCCN)NC(=O)[C@H](CCCCN)NC(=O)[C@H](CCCCN)NC(=O)[C@H](CCCCNC(=O)c1ccccc1)NC(=O)[C@H](CCCCN)NC(=O)[C@H](CCCCN)NC(=O)[C@@H](N)CCCCNC(=O)c1ccccc1)C(=O)N[C@@H](CCCCNC(=O)c1ccc(B(O)O)cc1)C(=O)N[C@@H](Cc1ccc(O)cc1)C(=O)O (H-K(Bz)KKK(Bz)KKKLK(Benzoyl(4-B(OH)2))Y-OH) : 8

The recorded MIC for CC(C)C[C@H](NC(=O)[C@H](CCCCN)NC(=O)[C@H](CCCCN)NC(=O)[C@H](CCCCN)NC(=O)[C@H](CCCCNc1c2ccccc2nc2ccccc12)NC(=O)[C@H](CCCCN)NC(=O)[C@H](CCCCN)NC(=O)[C@@H](N)CCCCNc1c2ccccc2nc2ccccc12)C(=O)N[C@@H](CCCCNC(=O)c1ccc(B(O)O)cc1)C(=O)N[C@@H](Cc1ccc(O)cc1)C(=O)O (H-K(Acridin9yl)KKK(Acridin9yl)KKKLK(Benzoyl(4-B(OH)2))Y-OH) is 4

---

System: Aspergillus niger
Assay: Antifungal activity against Aspergillus niger measured on day 4 by broth microdilution method
Type: functional
Settings: 96 h
Where a SMILES comes first, the peptide text is derived from it. The star is where a group is joined. Benzoyl(4-B(OH)2) = O=C(c1ccc(B(O)O)cc1)*; Acridin9yl = c1ccc2c(*)c3ccccc3nc2c1
metric: MIC (µg/mL)
The answer is to be given in µg/mL; state only the numeric part.

Known results for compounds:
{"compound": "CC(C)C[C@H](NC(=O)[C@H](CC(C)C)NC(=O)[C@H](CCCCN)NC(=O)[C@H](CC(C)C)NC(=O)[C@@H](N)CC(C)C)C(=O)N[C@@H](CCCCN)C(=O)N[C@@H](CCCCN)C(=O)N[C@@H](CCCCNC(=O)c1ccc(B(O)O)cc1)C(=O)N[C@@H](CCCCN)C(=O)N[C@@H](Cc1ccc(O)cc1)C(=O)O (H-LLKLLKKK(Benzoyl(4-B(OH)2))KY-OH)", "metric": "MIC", "reported": 250}
{"compound": "CC(C)C[C@H](NC(=O)[C@H](CCCCN)NC(=O)[C@H](CC(C)C)NC(=O)[C@H](CCCCN)NC(=O)[C@H](CCCCN)NC(=O)[C@H](CC(C)C)NC(=O)[C@@H](N)CCCCN)C(=O)N[C@@H](CCCCN)C(=O)N[C@@H](CCCCNC(=O)c1ccc(B(O)O)cc1)C(=O)N[C@@H](Cc1ccc(O)cc1)C(=O)O (H-KLKKLKLKK(Benzoyl(4-B(OH)2))Y-OH)", "metric": "MIC", "reported": 125}

Record CC(C)C[C@H](NC(=O)[C@H](CCCCN)NC(=O)[C@H](CCCCN)NC(=O)[C@H](CCCCN)NC(=O)[C@H](CCCCN)NC(=O)[C@H](CCCCN)NC(=O)[C@H](CCCCN)NC(=O)[C@@H](N)CCCCN)C(=O)N[C@@H](CCCCNc1c2ccccc2nc2ccccc12)C(=O)N[C@@H](Cc1ccc(O)cc1)C(=O)O (H-KKKKKKKLK(Acridin9yl)Y-OH) ; system Aspergillus niger; MIC = 62.5

---

Test system: Aspergillus niger
Assay: Antifungal activity against Aspergillus niger measured on day 4 by broth microdilution method
Format: functional
Conditions: 96 h
Where a SMILES comes first, the peptide text is derived from it. The star is where a group is joined. Benzoyl(4-B(OH)2) = O=C(c1ccc(B(O)O)cc1)*; Acridin9yl = c1ccc2c(*)c3ccccc3nc2c1; Bz = O=C(c1ccccc1)*
Each entry below carries its reported MIC.
Could you give me the number in µg/mL? Just the number is fine.

Worked set:
{"compound": "CC(C)C[C@H](NC(=O)[C@H](CCCCN)NC(=O)[C@H](CCCCN)NC(=O)[C@H](CCCCN)NC(=O)[C@H](CCCCNC(=O)c1ccccc1)NC(=O)[C@H](CCCCN)NC(=O)[C@H](CCCCN)NC(=O)[C@@H](N)CCCCNC(=O)c1ccccc1)C(=O)N[C@@H](CCCCNC(=O)c1ccc(B(O)O)cc1)C(=O)N[C@@H](Cc1ccc(O)cc1)C(=O)O (H-K(Bz)KKK(Bz)KKKLK(Benzoyl(4-B(OH)2))Y-OH)", "test target": "Aspergillus niger", "metric": "MIC", "reported": 125}
{"compound": "CC(C)C[C@H](NC(=O)[C@H](CCCCN)NC(=O)[C@H](CCCCN)NC(=O)[C@H](CCCCNC(=O)c1ccccc1)NC(=O)[C@H](CCCCN)NC(=O)[C@H](CCCCN)NC(=O)[C@H](CCCCNC(=O)c1ccccc1)NC(=O)[C@@H](N)CCCCN)C(=O)N[C@@H](CCCCNC(=O)c1ccc(B(O)O)cc1)C(=O)N[C@@H](Cc1ccc(O)cc1)C(=O)O (H-KK(Bz)KKK(Bz)KKLK(Benzoyl(4-B(OH)2))Y-OH)", "test target": "Aspergillus niger", "metric": "MIC", "reported": 125}

Let us move to another entry and its MIC.
Lab note: compound CC(C)C[C@H](NC(=O)[C@H](CCCCN)NC(=O)[C@H](CCCCN)NC(=O)[C@H](CCCCN)NC(=O)[C@H](CCCCNc1c2ccccc2nc2ccccc12)NC(=O)[C@H](CCCCN)NC(=O)[C@H](CCCCN)NC(=O)[C@@H](N)CCCCNc1c2ccccc2nc2ccccc12)C(=O)N[C@@H](CCCCNC(=O)c1ccc(B(O)O)cc1)C(=O)N[C@@H](Cc1ccc(O)cc1)C(=O)O (H-K(Acridin9yl)KKK(Acridin9yl)KKKLK(Benzoyl(4-B(OH)2))Y-OH) tested on Aspergillus niger; recorded MIC was 32

---

Tested on: Escherichia coli
Test: Antimicrobial activity against Escherichia coli C ATCC 13706 measured on day 4 by broth microdilution method
Assay type: functional
Conditions: C ATCC 13706, 96 h
Where a SMILES comes first, the peptide text is derived from it. The star is where a group is joined. Benzoyl(4-B(OH)2) = O=C(c1ccc(B(O)O)cc1)*; Acridin9yl = c1ccc2c(*)c3ccccc3nc2c1; Bz = O=C(c1ccccc1)*
metric: MIC (mg/L)
// return numeric value only (unit: mg/L, not printed)

Example compounds with recorded MIC:
{"compound": "CC(C)C[C@H](NC(=O)[C@H](CCCCN)NC(=O)[C@H](CCCCN)NC(=O)[C@H](CC(C)C)NC(=O)[C@H](CCCCN)NC(=O)[C@@H](N)CCCCN)C(=O)N[C@@H](CCCCN)C(=O)N[C@@H](CCCCNC(=O)c1ccc(B(O)O)cc1)C(=O)N[C@@H](CCCCNC(=O)c1ccc(B(O)O)cc1)C(=O)N[C@@H](Cc1ccc(O)cc1)C(=O)O (H-KKLKKLKK(Benzoyl(4-B(OH)2))K(Benzoyl(4-B(OH)2))Y-OH)", "MIC (mg/L)": 16}
{"compound": "CC(C)C[C@H](NC(=O)[C@H](CC(C)C)NC(=O)[C@H](CCCCN)NC(=O)[C@H](CCCCNC(=O)c1ccc(B(O)O)cc1)NC(=O)[C@H](CCCCN)NC(=O)[C@H](CCCCN)NC(=O)[C@H](CCCCNC(=O)c1ccc(B(O)O)cc1)NC(=O)[C@@H](N)CCCCN)C(=O)N[C@@H](CCCCN)C(=O)N[C@@H](Cc1ccc(O)cc1)C(=O)O (H-KK(Benzoyl(4-B(OH)2))KKK(Benzoyl(4-B(OH)2))KLLKY-OH)", "MIC (mg/L)": 16}
{"compound": "CC(C)C[C@H](NC(=O)[C@H](CC(C)C)NC(=O)[C@H](CCCCN)NC(=O)[C@H](CCCCN)NC(=O)[C@H](CC(C)C)NC(=O)[C@H](CCCCN)NC(=O)[C@@H](N)CCCCN)C(=O)N[C@@H](CCCCN)C(=O)N[C@@H](CCCCNC(=O)c1ccc(B(O)O)cc1)C(=O)N[C@@H](Cc1ccc(O)cc1)C(=O)O (H-KKLKKLLKK(Benzoyl(4-B(OH)2))Y-OH)", "MIC (mg/L)": 16}
{"compound": "CC(C)C[C@H](NC(=O)[C@H](CCCCN)NC(=O)[C@H](CCCCN)NC(=O)[C@H](CCCCN)NC(=O)[C@H](CCCCN)NC(=O)[C@H](CCCCN)NC(=O)[C@H](CCCCN)NC(=O)[C@@H](N)CCCCN)C(=O)N[C@@H](CCCCNC(=O)c1ccccc1)C(=O)N[C@@H](Cc1ccc(O)cc1)C(=O)O (H-KKKKKKKLK(Bz)Y-OH)", "MIC (mg/L)": 8}
{"compound": "CC(C)C[C@H](NC(=O)[C@H](CCCCNc1c2ccccc2nc2ccccc12)NC(=O)[C@H](CCCCN)NC(=O)[C@H](CCCCN)NC(=O)[C@H](CCCCN)NC(=O)[C@H](CCCCN)NC(=O)[C@H](CCCCN)NC(=O)[C@@H](N)CCCCN)C(=O)N[C@@H](CCCCN)C(=O)N[C@@H](Cc1ccc(O)cc1)C(=O)O (H-KKKKKKK(Acridin9yl)LKY-OH)", "MIC (mg/L)": 16}
{"compound": "NCCCC[C@H](NC(=O)[C@H](CCCCNC(=O)c1ccccc1)NC(=O)[C@H](CCCCNC(=O)c1ccccc1)NC(=O)[C@H](CCCCN)NC(=O)[C@H](CCCCN)NC(=O)[C@H](CCCCN)NC(=O)[C@H](CCCCN)NC(=O)[C@H](CCCCN)NC(=O)[C@@H](N)CCCCN)C(=O)N[C@@H](Cc1ccc(O)cc1)C(=O)O (H-KKKKKKK(Bz)K(Bz)KY-OH)", "MIC (mg/L)": 16}
{"compound": "CC(C)C[C@H](NC(=O)[C@H](CCCCNC(=O)c1ccc(B(O)O)cc1)NC(=O)[C@H](CC(C)C)NC(=O)[C@H](CCCCN)NC(=O)[C@H](CCCCN)NC(=O)[C@H](CCCCN)NC(=O)[C@H](CCCCN)NC(=O)[C@H](CCCCN)NC(=O)[C@@H](N)CCCCN)C(=O)N[C@@H](Cc1ccc(O)cc1)C(=O)O (H-KKKKKKLK(Benzoyl(4-B(OH)2))LY-OH)", "MIC (mg/L)": 16}
{"compound": "CC(C)C[C@H](NC(=O)[C@H](CCCCN)NC(=O)[C@H](CCCCN)NC(=O)[C@H](CC(C)C)NC(=O)[C@@H](N)CCCCN)C(=O)N[C@@H](CCCCN)C(=O)N[C@@H](CCCCN)C(=O)N[C@@H](CCCCN)C(=O)N[C@@H](CCCCNC(=O)c1ccc(B(O)O)cc1)C(=O)N[C@@H](Cc1ccc(O)cc1)C(=O)O (H-KLKKLKKKK(Benzoyl(4-B(OH)2))Y-OH)", "MIC (mg/L)": 16}

Query CC(C)C[C@H](NC(=O)[C@H](CCCCN)NC(=O)[C@H](CCCCN)NC(=O)[C@H](CCCCNC(=O)c1ccccc1)NC(=O)[C@H](CCCCN)NC(=O)[C@H](CCCCN)NC(=O)[C@H](CCCCNC(=O)c1ccccc1)NC(=O)[C@@H](N)CCCCN)C(=O)N[C@@H](CCCCNC(=O)c1ccc(B(O)O)cc1)C(=O)N[C@@H](Cc1ccc(O)cc1)C(=O)O (H-KK(Bz)KKK(Bz)KKLK(Benzoyl(4-B(OH)2))Y-OH) yields MIC of 32

// MIC value for CC(C)C[C@H](NC(=O)[C@H](CC(C)C)NC(=O)[C@H](CCCCN)NC(=O)[C@H](CC(C)C)NC(=O)[C@@H](N)CC(C)C)C(=O)N[C@@H](CCCCN)C(=O)N[C@@H](CCCCN)C(=O)N[C@@H](CCCCNC(=O)c1ccc(B(O)O)cc1)C(=O)N[C@@H](CCCCN)C(=O)N[C@@H](Cc1ccc(O)cc1)C(=O)O (H-LLKLLKKK(Benzoyl(4-B(OH)2))KY-OH) : 16

Source of measurements: ChEMBL document CHEMBL4118096
